Source of measurements: PubChem BioAssay AID493034

target: Platelet-activating factor acetylhydrolase IB subunit alpha2 (Homo sapiens); test: inhibition of human PAFAH1B2 catalytic subunit – biochemical, fluorescence polarization, FP-rhodamine probe, triplicate, confirmation (AID 493034); details: recombinant PAFAH1B2, FP-rhodamine probe fluorescence polarization; at 3.39 µM;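 also: 0% = enzyme with DMSO and 100% = wells lacking PAFAH1B2 protein; inhibitors lower polarization by leaving the probe unbound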
The whole screen tested about 2,400 compounds, of which about 2,200 (92%) were called active.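 The calls were made as follows: active = mean inhibition over triplicate runs exceeds the cutoff derived for the earlier primary screen (cut at about 25% in these data); inactive = the rest.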 So high a share suggests a set chosen from earlier hits. The list shows a part of the results.
Your answer must be one of the following: yes (1) for active, no (0) for inactive

Smiles Record: O=C1OC[C@@H]2CCCN2C(=O)[C@@H](CC(=O)N(CCO)Cc2ccccc2)C/C=C\C[C@H]1Cc1ccc(F)cc1
Label Class: yes (1)
//
Smiles Record: O=C1OC[C@@H]2CCCN2C(=O)[C@H](CC(=O)N(CCO)Cc2ccccc2)C/C=C\C[C@H]1Cc1ccc(F)cc1
Label Class: yes (1)
//
Smiles Record: O=C1OC[C@H]2CCCN2C(=O)[C@@H](CC(=O)N(CCO)Cc2ccccc2)C/C=C\C[C@@H]1Cc1ccc(F)cc1
Label Class: yes (1)

Attention now shifts to the item below.
[Q] Which outcome was entered for the compound O=C1N[C@@H](Cc2c[nH]c3ccccc23)COC(=O)[C@@H](Cc2ccc(F)cc2)CC/C=C/C[C@@H]1CC(=O)N(CCO)Cc1ccccc1 in this test?
[A] no (0)
